From: the supplement of paper PMC12764529

# Procedure text: folding stability dG unfold from trypsin proteolysis; higher = more stable
folding stability dG unfold below 0.7 kcal/mol gives false; folding stability dG unfold at or above it gives true.

[[record]]
residue_sequence = "SAGGSADTITIFFPGMPPEFAKEILEAILYEQGWKPKSVSTERHPEKGMHTIEVRFPNGRKITIMFSAGGSA [r15_958_TrROS]"
label_class = "true"

[[record]]
residue_sequence = "SAGGSAGGSKPVLVKVERKEVEVPLPDGTPGKVFVVKVTVLGENEPLAEKTYLFASEEEAKESSAGGSAGGS [r12_461_TrMRF]"
label_class = "false"

[[record]]
residue_sequence = "SAGGMLTGTLVDPVEGIRYTSFYDPSKPSSSITPKPIPPVPPVSLEELAERLRAATGLSREEVLALLESAGG [r13_824_JUSTAS]"
label_class = "true"

[[record]]
residue_sequence = "SAGGSITVSEDESNLTFTIPVPPTEPLTPEEVRAAAEALLAELGPDIRVLSIERLPDGGYRVEAEVRSAGGS [r8_103_JUSTAS]"
label_class = "true"

[[record]]
residue_sequence = "SAGGSKIIITYDKEKNVITIKVEKNGKLLEITIEVKSKEDLEEALKKAEELAKELEKKGYKVEIIPSAGGSA [r2_118_TrROS_Hall]"
label_class = "true"

[[record]]
residue_sequence = "SAGGMVEVTYDPETGTLTILLPSPSGTLGPEAVEAAARLIRELYPEAEVEVEPLPDNTVRLRVRFPGGSAGG [r13_291_TrMRF]"
label_class = "true"

[[record]]
residue_sequence = "SAGGKKKKKVKIKIEIAIVIPEEDLSEEERKKLAEELAERLKRELAEKLGLSEDEIEEIEVTVYRLPPSAGG [r13_5_TrROS_Hall]"
label_class = "true"

[[record]]
residue_sequence = "SAMKLTTLSESSDPATGVRYLTVAIPSSQDDLIKEIAEELEKKGVKATILTPNVPAGSSVTIKLEFKGKSAG [r14_354_JUSTAS]"
label_class = "false"

[[record]]
residue_sequence = "SAGGKIREVEIEEFDPDNGWVMITFNMPPEDLDKMKPIKLPGIKDVHWDPGNDHISASMPLEEAKEASAGGS [r16_614_TrROS]"
label_class = "false"

[[record]]
residue_sequence = "SAGGSAGGSADEPETTTTTTTTTTTKKPAPPAPPKTITLDVEVNGKTLRLTFTSKEALDALSAGGSAGGSAG [r3_426_TrROS_Hall]"
label_class = "true"


[Q] For this sequence, is measured folding stability dG unfold 0.7 kcal/mol or higher? SAGGMLVEARPVLRLTLVSPDGTPREFELPFTVPFSPENPEALLEEAEAIARAIAEATGAEAEIEIEPSAGG [r13_853_TrMRF]
[A] false

[Q] Next entry: SAGGSALVIKKVEPNKGYLVFESKEDDKPIVRVKLETLVAALEEDRIPPALRRLLAENPDQVFNPVSAGGSA [r15_359_TrMRF]
[A] true

[Q] Next record, please: SSDIKIEIDIERNDDGYLTFTIEIRHPDPQQLVDAAKEIILELFPPGVNIDVEPHPDGWVKAPIMFPLPKSA [r9_646_TrROS]
[A] true

[Q] Also need SAGFKIDDVETEKDPDGEKEITFRYVDPGDGRPWMLNLRINPNGKLTEENPVPFDDFPPGSYWTIRIKSAGG [r19_393_TrROS] , thanks.
[A] false

###

# Procedure text: folding stability dG unfold (combined trypsin and chymotrypsin); higher = more stable
Metric: folding stability dG unfold (kcal/mol)
Give just the number in kcal/mol; leave the unit off.

Worked cases, answers included:
[[record]]
residue_sequence = "SAGMLRVDIEIPPAFRKMLKNAPPGETVMFELPIKIKIEYYQPDGGKPEPKEHEQPFPVQFMVVLPPDGSAG [r5_946_TrROS]"
metric = "folding stability dG unfold"
readout_unit = "kcal/mol"
measured = 2.84

[[record]]
residue_sequence = "SAGGSAGGSSIGRTEYIPEENLIVREEPETGLTIITKKPPNGPNIVYTIEPETGEKTVEESLISAGGSAGGS [r12_55_JUSTAS]"
metric = "folding stability dG unfold"
readout_unit = "kcal/mol"
measured = 0.292

[[record]]
residue_sequence = "SAGGSAGGSAGNLKVVDISIWRTDDMRYIMFKLEGDGLTIMIWVPPKEPGKIQIMIFPLDSAGGSAGGSAGG [r11_1046_TrROS]"
metric = "folding stability dG unfold"
readout_unit = "kcal/mol"
measured = 4.34

[[record]]
residue_sequence = "SAGGSAGGSAGSSLPPDARYTTKVTVKTPFSKTLSLSEYQKLPPSEIKGIEIEKEVVPVESAGGSAGGSAGG [r11_899_JUSTAS]"
metric = "folding stability dG unfold"
readout_unit = "kcal/mol"
measured = -0.927


[Q] Item under review: SAGGSAGGSAGMIVIETPLSEYEKLKSPDIEVLEKSEGKVVIEIKVPPEPFYDEEGKPLKSAGGSAGGSAGG [r11_828_JUSTAS] . Reported folding stability dG unfold?
[A] 0.286

[Q] Try this sequence too: SAGGLLVVLPPDLTPEELREKALELAELARKAGDFEVERIELVRDEETDRPYAVLVIRDPRTGKILVASAGG [r13_669_TrMRF]
[A] 1.23

###

# Procedure text: folding stability dG unfold from chymotrypsin proteolysis; higher = more stable
Metric: folding stability dG unfold
The reply should consist of the numeric value with the unit placed after it.

[[record]]
residue_sequence = "SAGGLPPEIKVEISFTPDPATGKWRGTVTAFDPVTGKTVTVPVTSDTPEELRARLEAAAAAVAAALASAGGS [r8_480_JUSTAS]"
metric = "folding stability dG unfold"
measured = "4.36 kcal/mol"

[[record]]
residue_sequence = "SAGGSAGGSAKEFVAKVITPDGKPFTIPFGGETEEEAIEKLKEAIKKAFPEYKGVKIELEEKSAGGSAGGSA [r18_434_TrMRF]"
metric = "folding stability dG unfold"
measured = "0.626 kcal/mol"

[[record]]
residue_sequence = "SAGGSAGGSEEIKKAIEEALKKMKPGEEKEVTIEIYDKKTNKKIAKIKIRIRRKKDGKLEIEFSAGGSAGGS [r20_151_TrROS_Hall]"
metric = "folding stability dG unfold"
measured = "3.6 kcal/mol"

[[record]]
residue_sequence = "SAGGSAGGSAGGLAPAPDGSPVAVLLDDGRVVVFDPETAELYVAFVTPDSVRVVPLPLDLSAGGSAGGSAGG [r7_527_TrMRF]"
metric = "folding stability dG unfold"
measured = "0.656 kcal/mol"

[[record]]
residue_sequence = "SAGGMGISTEPEISFERKTLPDGTYVLEIHTTTTTTDSSGVVTTTTSTKTVKFSPDNPEKIKELIEALSAGG [r13_412_JUSTAS]"
metric = "folding stability dG unfold"
measured = "2.51 kcal/mol"

[[record]]
residue_sequence = "SAGGSAGGSAGGSSSMVEVEVESEEELEAYLEPLAARGVEVTLTSRDPETGRWLLRVTPPSAGGSAGGSAGG [r7_964_JUSTAS]"
metric = "folding stability dG unfold"
measured = "0.233 kcal/mol"


[Q] Endpoint output: folding stability dG unfold of SAGGSAGGMVVGILTITDPATGSSETLVIPMPSEEEAVERAKELAEELEAKKGKIVKVEIRPRPSAGGSAGG [r6_787_JUSTAS] . Value?
[A] 1.5 kcal/mol

[Q] Now consider SGMPPVSFANLELVAVSPDGTVTVVRAELTGPDGERYVWTGSLSELLKRLEEEDLTLDNFKEGGLIVAVDSA [r9_1078_TrMRF] .
[A] 3.75 kcal/mol

[Q] Param item: SAMTYTLTPAGGKTITVTLNPDGSITITSTSTSSSLPLSPDAKITSVTFDAATGTITITLNSKPITIPASAG [r14_276_JUSTAS]
[A] 1.74 kcal/mol

[Q] // query: SAGGSMKPVKKTIVILKPSSVTEEEVKEEVVEKAKELGLKVKPIRTEVYPLPDYYLVVVEVEIEVPPESAGG [r13_351_TrMRF]
[A] 1.24 kcal/mol

[Q] Next entry: SAGGSAGGSAGIPLGPDGGLIVTEGPDGPVEERLFASPEEARRWIEEHLPEGWRVVFRPLSAGGSAGGSAGG [r11_983_TrMRF]
[A] 1.6 kcal/mol

###

Consider the following sequences and their measured folding stability dG unfold readings.
# Procedure text: folding stability dG unfold from chymotrypsin proteolysis; higher = more stable
Kindly provide the numeric value in kcal/mol only, without the unit symbol.

Answered examples (4):
[[record]]
residue_sequence = "SMPPLGEETTLLETIELPEKLTVEIRRVTLPNGVPLIEVSKTDPSGNTTPIFRAPGNDPAALAAARAALASA [r9_1069_JUSTAS]"
readout_unit = "kcal/mol"
measured = -0.0163

[[record]]
residue_sequence = "SAGGMPAKAVTTKLPDGTDRITVTTVGSGKSATIPVPAGELKVIEIEEGEETLSVSFVEVGPDNPELGSAGG [r13_122_TrMRF]"
readout_unit = "kcal/mol"
measured = 0.374

[[record]]
residue_sequence = "SAGGPFDDFEPLGTIPFKVNGMEIEIQIWRMKNPGHYMVDIRNPGFGIPVMYWVPPGDIEEILDLIRSAGGS [r8_469_TrROS]"
readout_unit = "kcal/mol"
measured = 3.1

[[record]]
residue_sequence = "PPPDVPVETETKTSTSTLPDGSRLTTTTTTTRAPNGYYYDTTSVTTTVAPDGTVTTTSTSTTKGPLPAALLS [r1_129_JUSTAS]"
readout_unit = "kcal/mol"
measured = 1.51


[Q] Quick one: folding stability dG unfold of SAGGSAGGSAGGMTVVERTIEVEPDAKVIPLNLPGSNISATVLEYDPETGTLKVKIYVKESAGGSAGGSAGG [r17_198_JUSTAS] ?
[A] 1.06

[Q] Now the sequence SAGGSAKKPEVTVEIEIVLPKEELEELLEALRKLPGLKVEVEEVEVREDGYVRVKLRITLPPGVKPSAGGSA [r15_441_TrROS_Hall]
[A] 3.48

[Q] Item: MKPGETKTLTLTIVDEETGETYTVKVTVTYDEDTGVVTIKAEITYPDGRKFTVTARFNRETGELTEISIEPS [r1_144_TrROS_Hall]
[A] 4.44
